pIC50: −log10 of the molar value.
Below, pIC50 values reported for Protease (Human immunodeficiency virus 1) across several publications.
property measured: pIC50

Sample records with pIC50:
Cc1cccc(C)c1N(CC(=O)N[C@@H](Cc1ccccc1)[C@@H](O)CN(CC(C)C)S(=O)(=O)c1ccc(N)cc1)CC(=O)N1CCOCC1 | 5.59
CC(C)CN(C[C@@H](O)[C@H](Cc1ccccc1)NC(=O)Cn1cc(CO)c(=O)[nH]c1=O)S(=O)(=O)c1ccc([N+](=O)[O-])cc1 | 6.39
COc1ncnc2c1ncn2CC(=O)N[C@@H](Cc1ccccc1)[C@H](O)CN(CC(C)C)S(=O)(=O)c1ccc(N)cc1 | 5.82

[P] CC(C)[C@H](NC(=O)CCCNC(=O)[C@]12CCC(C)(C)C[C@H]1C1=CC[C@@H]3[C@@]4(C)CC[C@H](OC(=O)CC(C)(C)CC(=O)O)C(C)(C)[C@@H]4CC[C@@]3(C)[C@]1(C)CC2)C(=O)O
[Q] CC(C)C[C@H](NC(=O)[C@H](CSCCOCCOCCSC[C@H](NC(=O)C1CCCCC1)C(=O)N[C@@H](Cc1ccccc1)C(=O)O)NC(=O)C1CCCCC1)C(=O)N[C@@H](Cc1ccccc1)C(N)=O
Lab log: flag the item ( P or Q ) with the smaller pIC50 figure. Answer format: the label of the selected item.
P
